# system under test: PDGFR (Homo sapiens)
# Sequence (P09619 33-1106): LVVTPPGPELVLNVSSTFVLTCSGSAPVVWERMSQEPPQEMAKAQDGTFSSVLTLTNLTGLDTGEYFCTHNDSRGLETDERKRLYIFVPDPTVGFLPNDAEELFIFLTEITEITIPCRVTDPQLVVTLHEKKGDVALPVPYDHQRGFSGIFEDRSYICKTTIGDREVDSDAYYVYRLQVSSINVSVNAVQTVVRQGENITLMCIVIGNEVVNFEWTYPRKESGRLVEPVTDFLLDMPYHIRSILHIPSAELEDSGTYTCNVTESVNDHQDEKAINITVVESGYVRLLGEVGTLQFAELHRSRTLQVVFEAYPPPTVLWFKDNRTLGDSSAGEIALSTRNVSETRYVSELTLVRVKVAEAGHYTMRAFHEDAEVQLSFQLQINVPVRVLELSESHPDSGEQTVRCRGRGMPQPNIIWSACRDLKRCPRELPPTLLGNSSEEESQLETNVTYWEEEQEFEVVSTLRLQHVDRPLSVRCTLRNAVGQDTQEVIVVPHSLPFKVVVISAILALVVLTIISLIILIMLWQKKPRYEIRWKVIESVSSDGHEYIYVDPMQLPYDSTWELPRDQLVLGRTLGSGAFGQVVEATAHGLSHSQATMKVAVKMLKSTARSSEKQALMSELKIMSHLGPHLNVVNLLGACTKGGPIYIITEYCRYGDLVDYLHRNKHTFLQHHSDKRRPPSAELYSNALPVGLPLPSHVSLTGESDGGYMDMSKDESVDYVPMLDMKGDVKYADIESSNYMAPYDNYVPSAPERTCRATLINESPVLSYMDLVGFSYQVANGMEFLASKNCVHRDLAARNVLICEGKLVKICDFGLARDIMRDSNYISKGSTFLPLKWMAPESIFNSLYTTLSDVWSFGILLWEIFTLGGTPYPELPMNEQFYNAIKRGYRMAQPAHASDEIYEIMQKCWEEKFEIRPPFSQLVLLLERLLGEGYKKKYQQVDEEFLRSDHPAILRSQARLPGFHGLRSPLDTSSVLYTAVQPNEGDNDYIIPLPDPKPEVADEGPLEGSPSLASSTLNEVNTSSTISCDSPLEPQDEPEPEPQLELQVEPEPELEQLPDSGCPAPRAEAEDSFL
# test: Receptor tyrosine kinase inhibition, PDGFR
# Assay type: cell-based
# Design: U1242 (PDGF-β receptor); host or cells: U1242 glioma cells (ELISA)
# test context: read-out: PDGFR IC50
pIC50: −log10 of the molar value.
endpoint label: pIC50

Past entries and their recorded results:
{"sample smiles": "COCCCN1C(=O)SC(=Cc2ccccc2Cl)C1=O", "pIC50": 4.34}
{"sample smiles": "Cc1cc2nc(C(=O)O)c(-c3ccccc3)nc2cc1C", "pIC50": 6.05}
{"sample smiles": "Cc1cc2ncc(-c3ccc([N+](=O)[O-])cc3)nc2cc1C", "pIC50": 4.32}
{"sample smiles": "CN(C)CCn1cc(C=C(C#N)c2[nH]nc(N)c2C#N)c2ccccc21", "pIC50": 4.47}
{"sample smiles": "N#CC(=Cc1c[nH]c2ccccc12)c1[nH]nc(N)c1C#N", "pIC50": 4.33}
{"sample smiles": "Cc1cc2nc(-c3ccccc3)c(-c3ccc(O)c(O)c3)nc2cc1C", "pIC50": 5.30}
{"sample smiles": "c1ccc(-c2cnc3cc4ccccc4cc3n2)cc1", "pIC50": 4.85}
{"sample smiles": "N#CCS(=O)(=O)C(C#N)=Cc1cc(O)c(O)c(Br)c1", "pIC50": 5.52}

1 = Cc1cc2ncc(Nc3cccc(I)c3)nc2cc1C
2 = N#CC(=Cc1c[nH]c2ccccc12)c1c(C#N)c(N)nn1-c1ccccc1
input: Given the listed records, identify the one among 1 and 2 with higher pIC50. Which one? Tell me its label.
output: 2
(2: 4.85, 1: 4.64)

* * *

Property: IC50; scope: individual molecules
# system under test: EGFR (Homo sapiens, UniProt P00533)
# Construct: expressed in transfected cells; host or cells: NIH3T3 mouse fibroblasts, retroviral vector
# Sequence (P00533 25-1210): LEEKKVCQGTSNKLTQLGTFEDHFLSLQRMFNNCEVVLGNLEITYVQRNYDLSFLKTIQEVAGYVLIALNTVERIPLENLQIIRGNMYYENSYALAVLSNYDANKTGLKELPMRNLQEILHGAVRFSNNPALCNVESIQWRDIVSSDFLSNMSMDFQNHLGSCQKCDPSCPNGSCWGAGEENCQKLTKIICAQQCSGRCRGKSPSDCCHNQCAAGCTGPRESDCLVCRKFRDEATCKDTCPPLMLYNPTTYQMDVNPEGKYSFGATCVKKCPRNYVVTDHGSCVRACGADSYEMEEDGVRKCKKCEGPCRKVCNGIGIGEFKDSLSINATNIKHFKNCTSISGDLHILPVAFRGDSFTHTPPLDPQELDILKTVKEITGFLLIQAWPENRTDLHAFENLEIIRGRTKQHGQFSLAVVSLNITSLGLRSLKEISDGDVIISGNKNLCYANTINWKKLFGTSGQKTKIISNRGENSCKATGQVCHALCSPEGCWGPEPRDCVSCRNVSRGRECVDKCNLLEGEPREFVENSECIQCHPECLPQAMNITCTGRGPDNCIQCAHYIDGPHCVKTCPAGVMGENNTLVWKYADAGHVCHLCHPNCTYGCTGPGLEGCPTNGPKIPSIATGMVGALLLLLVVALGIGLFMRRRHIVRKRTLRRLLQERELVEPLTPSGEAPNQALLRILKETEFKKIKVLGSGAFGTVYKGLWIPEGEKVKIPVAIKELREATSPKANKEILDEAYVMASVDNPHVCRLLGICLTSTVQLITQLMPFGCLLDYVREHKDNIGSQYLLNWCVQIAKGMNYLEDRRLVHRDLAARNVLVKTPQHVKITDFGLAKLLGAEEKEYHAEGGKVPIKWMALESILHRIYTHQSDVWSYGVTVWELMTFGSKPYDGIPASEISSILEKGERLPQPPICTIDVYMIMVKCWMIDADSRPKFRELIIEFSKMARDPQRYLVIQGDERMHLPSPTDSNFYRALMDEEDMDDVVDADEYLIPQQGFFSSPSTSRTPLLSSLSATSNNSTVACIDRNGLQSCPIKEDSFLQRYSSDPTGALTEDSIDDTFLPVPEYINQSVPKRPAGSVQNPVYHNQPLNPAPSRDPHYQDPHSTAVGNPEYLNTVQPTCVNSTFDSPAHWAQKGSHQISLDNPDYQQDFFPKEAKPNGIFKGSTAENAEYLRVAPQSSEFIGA
# test: Receptor tyrosine kinase inhibition, EGFR
# Format: cell-based
# test context: read-out: EGFR ID50

Past entries and their recorded results:
{"sample smiles": "N#CC(=Cc1cc(O)c(O)c(Br)c1)C(=O)NCCCNC(=O)C(C#N)=Cc1cc(O)c(O)c(Br)c1", "IC50": "31 µM"}
{"sample smiles": "c1ccc(-c2cnc3cc4ccccc4cc3n2)cc1", "IC50": "> 100 µM"}

Could you now look at the following molecule, please?
input: Look up and report measured IC50 for this entry: Cc1cc2ncc(Nc3ccc(I)cc3)nc2cc1C
output: > 100 µM

* * *

# system under test: FLK-1 (Mus musculus, UniProt P35918)
# Construct: expressed in transfected cells; host or cells: NIH3T3 mouse fibroblasts, retroviral vector
# Sequence (P35918 20-1345): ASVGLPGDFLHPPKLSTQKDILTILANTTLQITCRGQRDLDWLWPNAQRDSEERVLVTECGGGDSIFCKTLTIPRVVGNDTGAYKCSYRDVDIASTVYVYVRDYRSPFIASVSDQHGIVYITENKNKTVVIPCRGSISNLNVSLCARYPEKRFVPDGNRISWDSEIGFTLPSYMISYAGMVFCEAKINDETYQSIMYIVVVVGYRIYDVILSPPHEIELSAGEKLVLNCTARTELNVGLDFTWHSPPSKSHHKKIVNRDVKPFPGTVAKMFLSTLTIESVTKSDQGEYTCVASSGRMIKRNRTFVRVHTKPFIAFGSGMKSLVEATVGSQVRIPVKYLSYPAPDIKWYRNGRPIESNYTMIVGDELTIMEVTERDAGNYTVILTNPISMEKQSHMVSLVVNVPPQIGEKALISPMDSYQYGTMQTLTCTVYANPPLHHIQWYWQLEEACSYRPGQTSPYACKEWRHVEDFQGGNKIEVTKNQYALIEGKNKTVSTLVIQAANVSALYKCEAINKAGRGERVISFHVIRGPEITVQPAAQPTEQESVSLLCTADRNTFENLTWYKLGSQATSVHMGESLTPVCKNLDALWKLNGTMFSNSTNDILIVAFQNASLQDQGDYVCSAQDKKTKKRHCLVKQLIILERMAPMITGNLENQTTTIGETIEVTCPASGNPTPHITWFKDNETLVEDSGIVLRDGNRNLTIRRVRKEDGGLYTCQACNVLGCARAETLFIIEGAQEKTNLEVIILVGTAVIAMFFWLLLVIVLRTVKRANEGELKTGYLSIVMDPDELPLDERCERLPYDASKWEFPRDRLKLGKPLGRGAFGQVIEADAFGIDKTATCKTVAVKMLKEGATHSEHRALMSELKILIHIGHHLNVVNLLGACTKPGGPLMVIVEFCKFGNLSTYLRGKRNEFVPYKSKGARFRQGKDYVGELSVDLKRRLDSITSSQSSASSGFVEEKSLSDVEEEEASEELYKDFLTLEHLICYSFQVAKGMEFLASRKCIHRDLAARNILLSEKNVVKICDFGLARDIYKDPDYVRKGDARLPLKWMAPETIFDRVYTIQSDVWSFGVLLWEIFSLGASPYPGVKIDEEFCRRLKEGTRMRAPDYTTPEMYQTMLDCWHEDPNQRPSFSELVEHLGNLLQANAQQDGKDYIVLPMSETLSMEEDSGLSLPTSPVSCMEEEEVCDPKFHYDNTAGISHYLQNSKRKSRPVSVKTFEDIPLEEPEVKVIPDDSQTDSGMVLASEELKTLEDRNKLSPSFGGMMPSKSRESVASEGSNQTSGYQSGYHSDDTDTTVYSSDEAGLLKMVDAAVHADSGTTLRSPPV
# test: Receptor tyrosine kinase inhibition, FLK-1
# Format: cell-based
# test context: read-out: FLK-1 IC50
pIC50: −log10 of the molar value.
endpoint label: pIC50

Past entries and their recorded results:
{"molecule": "O=C(Nc1cc(C(F)(F)F)cc(C(F)(F)F)c1)c1cccs1 [Compound P12]", "pIC50": "< 4.30"}
{"molecule": "N#CCS(=O)(=O)C(C#N)=Cc1cc(O)c(O)c(Br)c1 [Compound J11]", "pIC50": "< 4.60"}
{"molecule": "CC(C)(C)c1cc(C=C(C#N)c2[nH]nc(N)c2C#N)cc(C(C)(C)C)c1O [Compound C13]", "pIC50": 5.48}
{"molecule": "N#CC(=Cc1c[nH]c2ccccc12)C(N)=S [Compound D11]", "pIC50": "< 4.30"}
{"molecule": "CN(C)CCn1cc(C=C(C#N)c2[nH]nc(N)c2C#N)c2ccccc21 [Compound D18]", "pIC50": "< 4.30"}

Could you now look at the following molecule, please?
input: Provide pIC50, system FLK-1 (Mus musculus, UniProt P35918), entry COc1cc2cc(-c3ccccc3)c(Cl)nc2cc1OC [Compound G12]
output: < 4.30
